# Lookup of reported Activity keyed by entry
experiment_description: Ex vivo inhibition of MAOA in CD1 mouse brain homogenates assessed as inhibition of 5-HT deamination by measuring 5-HIAA metabolite levels by using at 30 mg/kg, po administered as subchronic dose via gavage for 7 days and measured 1 hr post last dose by HPLC analysis (reference value: 0.18 +/- 0.01 ug/g)
Format: functional
condition_set: time 7 day
reported_metric: Activity

1. COc1ccc(C2=NN(C(=O)Cn3c(=O)oc4ccc(C)cc43)C(c3cccc(OC)c3OC)C2)cc1 (centres undefined)	0.3 µg/g
2. COc1ccc(C2=NN(C(=O)Cn3c(=O)oc4ccccc43)C(c3ccccc3Cl)C2)cc1 (centres undefined)	0.31 µg/g
3. COc1ccc(C2CC(c3ccccc3)=NN2C(=O)Cn2c(=O)oc3ccccc32)cc1OC (centres undefined)	0.24 µg/g
4. COc1cccc(C2CC(c3ccccc3)=NN2C(=O)Cn2c(=O)oc3ccccc32)c1 (centres undefined)	0.24 µg/g
